- SYSTEM_NAME: cyclooxygenase
- TEST_DETAILS: Cyclooxygenase inhibiting effect
- TEST_CONTEXT: seminal vasicular gland microsomes, 14C-arachidonic acid, prostaglandin E2 formation
pIC50: −log10 of the molar value.
Entries annotated with measured pIC50
OBSERVABLE: pIC50

| MOLECULE | OBSERVABLE | QUAL | OBSERVED |
| --- | --- | --- | --- |
| COc1ccc(-c2noc(CCNC(=S)/C=C/c3ccc(O)c(OC)c3)c2-c2ccc(OC)cc2)cc1 [Compound 48] | pIC50 | = | 7.52 |
| COc1ccc(-c2noc(CCCC(=O)/C=C/c3ccc(O)c(O)c3)c2-c2ccc(OC)cc2)cc1 [Compound 38] | pIC50 | = | 6.85 |
| COc1ccc(-c2noc(CCNC(=O)/C=C/C=C/c3cc(OC)c(O)c(OC)c3)c2-c2ccc(OC)cc2)cc1 [Compound 13] | pIC50 | = | 8.00 |
| COc1ccc(-c2noc(CCNC(=O)/C=C/c3ccc(O)c(O)c3)c2-c2ccc(OC)cc2)cc1 [Compound 5] | pIC50 | = | 7.00 |
| COc1ccc(-c2noc(CCNC(=O)/C=C/C=C/c3ccc(O)c(OC)c3)c2-c2ccc(OC)cc2)cc1 [Compound 12] | pIC50 | = | 7.82 |
| COc1ccc(-c2noc(CCCC(=O)/C=C/c3cc(C)c(O)c(C)c3)c2-c2ccc(OC)cc2)cc1 [Compound 40] | pIC50 | = | 6.62 |
| COc1ccc(-c2noc(CCNC(=O)/C=C/c3cc(OC)c(O)c(OC)c3)c2-c2ccc(OC)cc2)cc1 [Compound 10] | pIC50 | = | 7.00 |
| O=C(/C=C/c1ccc(O)c(O)c1)NCCc1onc(-c2ccccc2)c1-c1ccccc1 [Compound 6] | pIC50 | = | 5.59 |
| COc1ccc(-c2noc(CNC(=O)/C=C/C=C/c3ccc(O)c(OC)c3)c2-c2ccc(OC)cc2)cc1 [Compound 15] | pIC50 | = | 7.30 |
| COc1ccc(-c2noc(CNC(=O)/C=C/C=C/c3cc(OC)c(O)c(OC)c3)c2-c2ccc(OC)cc2)cc1 [Compound 16] | pIC50 | = | 6.54 |
| COc1ccc(-c2noc(C(=O)/C=C/C=C/c3ccc(O)c(OC)c3)c2-c2ccc(OC)cc2)cc1 [Compound 46] | pIC50 | = | 6.55 |
| Cc1ccc(-c2noc(CCNC(=O)/C=C/c3ccc(O)c(O)c3)c2-c2ccc(C)cc2)cc1 [Compound 7] | pIC50 | = | 5.59 |
| COc1ccc(-c2noc(CCNC(=O)/C=C/C=C/c3c(OC)cc(O)cc3OC)c2-c2ccc(OC)cc2)cc1 [Compound 14] | pIC50 | > | 8.00 |
| COc1ccc(-c2noc(CCCC(=O)/C=C/c3cc(OC)c(O)c(OC)c3)c2-c2ccc(OC)cc2)cc1 [Compound 39] | pIC50 | = | 5.88 |
| COc1ccc(-c2c(-c3ccc(Cl)cc3)noc2CCNC(=O)/C=C/c2ccc(O)c(O)c2)cc1 [Compound 8] | pIC50 | = | 5.82 |
| COc1ccc(-c2noc(CCOC(=O)/C=C/c3ccc(O)c(O)c3)c2-c2ccc(OC)cc2)cc1 [Compound 4] | pIC50 | = | 7.18 |
